targetOrTestSystem: soluble human BACE1 catalytic domain (Homo sapiens (Human), UniProt P56817)
Sequence (P56817 75-416): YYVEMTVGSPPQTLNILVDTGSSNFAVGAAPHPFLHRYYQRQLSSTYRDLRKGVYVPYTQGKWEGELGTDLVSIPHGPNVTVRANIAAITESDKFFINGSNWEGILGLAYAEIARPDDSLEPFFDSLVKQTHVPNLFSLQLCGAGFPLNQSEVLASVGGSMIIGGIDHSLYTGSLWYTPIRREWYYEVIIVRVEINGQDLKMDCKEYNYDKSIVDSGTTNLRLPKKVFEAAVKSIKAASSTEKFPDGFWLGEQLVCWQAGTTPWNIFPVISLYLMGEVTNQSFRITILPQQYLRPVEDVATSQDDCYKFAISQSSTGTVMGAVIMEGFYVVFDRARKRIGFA
pKi: −log10 of the molar value.

# compound, pKi
rows = [
    ("CN1C(=N)N[C@](C)(c2sc(-c3cncc(-c4nnc(C5CC5)o4)c3)cc2Cl)CS1(=O)=O [Example 57]", 6.25),
    ("Cc1cn(-c2cc(-c3cc(F)c([C@]4(C)CS(=O)(=O)N(C)C(=N)N4)s3)ccn2)cn1 [Example 72]", 7.17),
    ("CN1C(=N)N[C@](C)(c2sc3c(-c4ccc(-n5cccn5)cc4F)nccc3c2Cl)CS1(=O)=O [Example 116]", 7.50),
    ("CN1C(=N)N[C@](C)(c2sc(-c3ccnc(-c4cccnc4)c3)cc2F)CS1(=O)=O [Example 74]", 6.70),
    ("CN1C(=N)N[C@](C)(c2sc(-c3ccc(-c4ccccn4)cc3)cc2Cl)CS1(=O)=O [Example 65]", 5.45),
    ("CN1C(=N)N[C@](C)(c2sc(-c3cc(F)cc(-c4cnco4)c3)cc2F)CS1(=O)=O [Example 25]", 7.90),
    ("CN1C(=N)N[C@](C)(c2sc(-c3ccnc(-c4ccccc4)c3)cc2F)CS1(=O)=O [Example 54]", 6.88),
    ("CN1C(=N)N[C@](C)(c2cc(-c3cc(F)cc(-c4nnco4)c3)cs2)CS1(=O)=O [Example 43]", 8.06),
    ("CN1C(=N)N[C@](C)(c2sc(-c3cccc(-c4ncco4)c3)cc2Cl)CS1(=O)=O [Example 6]", 8.33),
    ("CN1CCN(c2ccc(-c3cccc4c(F)c([C@]5(C)CS(=O)(=O)N(C)C(=N)N5)sc34)cn2)CC1 [Example 93]", 5.42),
    ("CN1C(=N)N[C@](C)(c2sc(-c3cccc(-c4ncco4)c3)cc2F)CS1(=O)=O [Example 7]", 8.06),
    ("CN1C(=N)N[C@](C)(c2sc(-c3cc(-c4nnco4)ccc3F)cc2F)CS1(=O)=O [Example 32]", 8.96),
    ("CN1C(=N)N[C@](C)(c2sc(-c3ccc(F)c(-c4nnco4)c3)cc2Cl)CS1(=O)=O [Example 33]", 8.26),
    ("CN1C(=N)N[C@](C)(c2sc(-c3ccc(-c4nccs4)cc3)cc2Cl)CS1(=O)=O [Example 70]", 6.08),
    ("Cc1occc1-c1ccc(-c2nccc3c(Cl)c([C@]4(C)CS(=O)(=O)N(C)C(=N)N4)sc23)c(F)c1 [Example 109]", 6.28),
    ("CN1C(=N)N[C@](C)(c2sc3c(-c4ccc(-c5ccc(F)cc5F)nc4)cccc3c2F)CS1(=O)=O [Example 82]", 7.03),
]

---

targetOrTestSystem: UniProtKB Q9Y5Z0
Sequence (Q9Y5Z0 63-473 limits assumed): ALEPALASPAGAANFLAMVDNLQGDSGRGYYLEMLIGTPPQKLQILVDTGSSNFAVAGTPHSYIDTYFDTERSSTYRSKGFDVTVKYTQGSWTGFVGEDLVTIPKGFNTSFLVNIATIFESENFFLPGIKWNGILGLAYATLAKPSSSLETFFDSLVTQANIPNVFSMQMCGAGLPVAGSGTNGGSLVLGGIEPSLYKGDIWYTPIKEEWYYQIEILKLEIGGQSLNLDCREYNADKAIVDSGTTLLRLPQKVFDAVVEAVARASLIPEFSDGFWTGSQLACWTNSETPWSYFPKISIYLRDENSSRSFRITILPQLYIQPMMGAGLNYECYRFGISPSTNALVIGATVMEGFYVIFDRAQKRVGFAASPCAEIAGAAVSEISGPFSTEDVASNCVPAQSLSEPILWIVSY
pKi: −log10 of the molar value.

# smi, pKi
data = [
    ("CN1C(=N)N[C@](C)(c2sc(-c3cccc(-c4ncon4)c3)cc2F)CS1(=O)=O", 9.47),
    ("CN1C(=N)N[C@](C)(c2sc(-c3cccc(-c4ncon4)c3)cc2Cl)CS1(=O)=O", 9.39),
    ("Cc1cocc1-c1ccc(-c2nccc3c(Cl)c([C@]4(C)CS(=O)(=O)N(C)C(=N)N4)sc23)c(F)c1", 6.35),
    ("CN1C(=N)N[C@](C)(c2sc3c(-c4ccc(C5CC5)nc4)cccc3c2F)CS1(=O)=O", 5.02),
    ("CN1C(=N)N[C@](C)(c2sc(-c3ccnc(-c4ccncc4)c3)cc2F)CS1(=O)=O", 6.91),
    ("Cc1noc(-c2cc(-c3cc(Cl)c([C@]4(C)CS(=O)(=O)N(C)C(=N)N4)s3)ccn2)n1", 8.96),
    ("CN1C(=N)N[C@](C)(c2sc3c(-c4ccc(-n5ccnn5)cc4)cccc3c2F)CS1(=O)=O", 6.83),
    ("CN1C(=N)N[C@](C)(c2sc(-c3ccc(-n4ccnn4)cc3)cc2Cl)CS1(=O)=O", 6.18),
]
